Assay: growth of efflux-deficient E. coli DRC39 – strain DRC39, OD650, 48 h, E. coli filamentation inducers, primary screen (AID 1179);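 note: screen aims at cell division blockers that make cells filament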
Conditions: E. coli DRC39 delta-acrAB growth, higher = more signal, called active from +8 up or from −8 down
REPORTED PROPERTY: z-score

{"columns": ["COMPOUND", "VALUE"],
 "data": [
  ["O=C(N1CCCCC1)[C@]1(CCS(=O)(=O)c2ccccc2)N=C(c2ccc(OCCCO)cc2)O[C@@H]1c1ccccc1", -0.385],
  ["COCC1C2CC[C@H]3C(OCc4ccc(F)cc4C(F)(F)F)OC[C@]4(C)[C@H]3C2=C(CN4C(=O)OC(C)(C)C)[C@H](C)C1COC (some centres not stated)", 0.25],
  ["C=CCC(OC(C)=O)[C@@H]1[C@@H](N(Cc2cc3ccccc3o2)C(=O)c2ccc(-c3ccccc3)cc2)c2cc(OCCCO)ccc2N1C(=O)Cc1ccc2ccccc2c1 (some centres not stated)", 0.682],
  ["C[N+](C)(C)CCCC[C@@H]1NC(=O)[C@@H]2C[C@H](C(=O)NCCCCCCNC(=O)CS)[C@H](c3cccc(OCCO)c3)N2C1=O", 0.832],
  ["C=CCN1Cc2ccccc2C[C@]2(N=C(c3ccc(OCCCO)cc3)O[C@@H]2c2ccccc2)C1=O", 1.09],
  ["O=S(=O)(NCCCO)c1ccc(Br)cc1", 2.3],
  ["COC(=O)[C@@]1(Cc2ccc(OC)cc2)[C@H]2c3cc(C(=O)N4CCCC4)n(C[C@H](O)CO)c3C[C@H]2CN1C(=O)c1ccccc1", 0.644]
]}

###

Target: Torsin-1A-interacting protein 1 (Homo sapiens) (UniProt Q5JTV8)
Sequence (Q5JTV8 whole entry, looked up): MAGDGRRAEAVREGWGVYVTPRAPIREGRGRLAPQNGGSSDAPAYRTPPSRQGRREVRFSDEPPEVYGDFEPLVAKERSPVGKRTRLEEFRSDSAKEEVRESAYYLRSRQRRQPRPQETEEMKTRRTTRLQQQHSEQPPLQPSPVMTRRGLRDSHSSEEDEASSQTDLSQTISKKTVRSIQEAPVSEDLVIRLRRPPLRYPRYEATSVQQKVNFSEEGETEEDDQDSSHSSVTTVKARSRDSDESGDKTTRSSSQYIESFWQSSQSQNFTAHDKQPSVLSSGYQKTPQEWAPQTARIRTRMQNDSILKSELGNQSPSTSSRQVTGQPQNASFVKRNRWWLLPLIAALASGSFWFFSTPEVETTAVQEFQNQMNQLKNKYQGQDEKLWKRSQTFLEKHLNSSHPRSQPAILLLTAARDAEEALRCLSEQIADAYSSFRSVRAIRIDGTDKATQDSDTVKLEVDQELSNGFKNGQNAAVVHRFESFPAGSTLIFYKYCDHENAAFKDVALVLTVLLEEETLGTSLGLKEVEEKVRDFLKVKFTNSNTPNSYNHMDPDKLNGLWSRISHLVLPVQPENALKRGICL
Experiment: compound microarray binding of lysate hLAP1 – cell lysate, small-molecule microarray, COS7 lysate, 635/667 nm fluorescence, primary screen (AID 1116)
Settings: 635 nm fluorescence, higher = more signal
Each entry gets NO if its composite z-score stays under 0.3, and YES if its composite z-score is 0.3 or above.

{"columns": ["MOLECULE", "ASSAY SYSTEM", "LABEL CLASS"],
 "data": [
  ["O=C1OCC=C[C@H]2OC34C=CCN(Cc5ccccc5)C(=O)[C@H]3N(CCCO)C(=O)[C@@H]4[C@@H]12 (stereo not given in full)", "Torsin-1A-interacting protein 1 (Homo sapiens) (UniProt Q5JTV8)", "YES"],
  ["CN1C(=O)C2C=CC(C(O)C(C)(C)C)N(Nc3ccccc3)C2C1=O (stereo not given)", "Torsin-1A-interacting protein 1 (Homo sapiens) (UniProt Q5JTV8)", "NO"],
  ["O=C(NCC(O)CO)[C@]1(CCS(=O)(=O)c2ccccc2)N=C(c2ccc(OCCCO)cc2)O[C@@H]1c1ccccc1 (stereo not given in full)", "Torsin-1A-interacting protein 1 (Homo sapiens) (UniProt Q5JTV8)", "YES"],
  ["O=C1OCC=C[C@H]2OC34C=CCN(c5ccc(Cl)cc5)C(=O)[C@H]3N(CCCO)C(=O)[C@@H]4[C@@H]12 (stereo not given in full)", "Torsin-1A-interacting protein 1 (Homo sapiens) (UniProt Q5JTV8)", "NO"]
]}

###

Experiment: optical density shifts of acrAB sulA E. coli – strain DRC41, OD650, 48 h, E. coli filamentation inducer project, primary screen (AID 1152);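 note: E. coli MC1000 strain DRC41 lacking acrAB efflux pump and sulA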
Details: higher = more signal, called active from +8 up or from −8 down
The source made the active and inactive calls.

{"columns": ["COMPOUND", "z-score"],
 "data": [
  ["C=CCNC(=O)[C@@H]1[C@H]2C(=O)O[C@H](c3ccccc3)[C@H](c3ccccc3)N2[C@H](c2ccccc2OCCO)[C@@]12C(=O)N(C(=O)OCCOC)c1ccc(C#CCC(C(=O)OC)C(=O)OC)cc12", "0.0535 (inactive)"],
  ["O=C1O[C@@H](c2ccccc2)[C@@H](c2ccccc2)N2[C@@H](c3ccc(O)cc3)[C@]3(C(=O)Nc4ccccc43)[C@@H](C(=O)N3CCCCCCC3)[C@H]12", "-0.779 (inactive)"],
  ["O=C1O[C@@H](c2ccccc2)[C@@H](c2ccccc2)N2[C@@H](c3ccc(O)cc3)[C@]3(C(=O)Nc4ccc(C#CCCO)cc43)[C@@H](C(=O)O)[C@H]12", "0.742 (inactive)"]
]}
